Entry source: paper PMC10079573

Experiment: in vitro
Assay type: in vitro ADME
Details: human, plasma, pH 7.4, % Bound R2
readoutLabel: fraction unbound at 4 h, 5 µM
Numbers only.

Complete the entry with fraction unbound at 4 h, 5 µM for CC(=O)CC(c1ccccc1)c1c(O)c2ccccc2oc1=O (stereo not shown) [Warfarin]
0.01
